Each item that follows carries a reported TGI.
system: OVCAR-4 ovarian; test: NCI tumour cell line growth inhibition, 48 h

// known answers, use as guide
COc1cc(-n2cnc(-c3ccc(Cl)cc3)c2)cc(OC)c1OC	46.6 µM
CC1=CC(=O)C(=CN2C(=O)/C(=C\c3cccnc3)NC2=S)C(=O)O1	> 100 µM
C=C(Br)C(C)(Br)CCC(Br)C(C)(C)Br (stereo unspecified)	> 100 µM
COc1ccccc1/C=C/c1c(N)ncnc1Nc1cccc(Cl)c1	34.4 µM
CCC(c1ccc2cc(O)ccc2c1)C(C)(C)C(=O)O (stereo unspecified)	> 100 µM

Now examine the next entry.
Could you tell me which TGI is on file for Cc1ccc2ccc3ccc(C)nc3c2n1 ?
> 100 µM

###

Each item that follows carries a reported TGI.
system: 786-0 renal; assay: NCI tumour cell line growth inhibition, 48 h
Provide only the numeric value, understood in µM.

N#C/C(=C1C=C/C(=N\O)C(Cl)=C\1)c1ccccc1	11.9
Cn1c(=O)cc(N=Nc2ccc(Cl)c(Cl)c2)[nH]c1=O	31.9
C[C@@H](CO)C1=CC(C#C[Si](C)(C)C)N(C(=O)Oc2ccccc2)c2ccccc21 (some centres undefined)	31.8

Now examine the next entry.
Could you tell me which TGI is on file for CC1=CC(=O)[C@@H](O)[C@]2(C)[C@H]3[C@@]4(O)OC[C@@]35[C@@H](C[C@@H]12)OC(=O)C(OC(=O)CC1=CCCC1)[C@H]5[C@@H](C)[C@H]4O (some centres undefined) ?
0.311

###

test system: SK-OV-3 ovarian; test: NCI tumour cell line growth inhibition, 48 h
Each item that follows carries a reported TGI.

C=C(C)[C@H]1C[C@@H]2O[C@@](O)(/C(C)=C\C(=O)/C=C(/C)C[C@H]3OC(=O)[C@@]24O[C@H]34)[C@@H]1O	> 100 µM

Could you tell me which TGI is on file for O=C1C(=c2cc3c(c4ccccc24)=NC24CCCCC2C(c2ccccc2)C=C(c2ccccc2)N34)C(=O)c2ccccc21 (centres undefined) ?
> 100 µM

Could you tell me which TGI is on file for C=CC[C@@H]1/C=C(\C)C[C@H](C)C[C@H](OC)[C@H]2O[C@@](O)(C(=O)C(=O)N3CCCC[C@H]3C(=O)O[C@H](/C(C)=C/C3CC[C@@H](O)[C@H](OC)C3)[C@H](C)[C@@H](O)CC1=O)[C@H](C)C[C@@H]2OC (some centres undefined) ?
31.2 µM

Could you tell me which TGI is on file for COc1ccc(NC(=O)CC(=O)N2N=C(N(CCC#N)c3cccc(C)c3)CC2c2ccccc2)cc1 (centres undefined) ?
> 100 µM

Could you tell me which TGI is on file for Cc1ccc2[nH]c3c(c2c1)CCC/C3=N/N=C(N)N ?
38.3 µM

Could you tell me which TGI is on file for C/C(=N/c1[nH]c(=O)cc2c1C(=O)CC2)N(C)C ?
> 200 µM

Could you tell me which TGI is on file for CC1=NN(c2cccc(Cl)c2)C(=N/c2nc3ccccc3s2)/C1=C\c1cccs1 ?
> 100 µM

Could you tell me which TGI is on file for COc1nc(N)nc2c1ncn2[C@@H]1O[C@H](CO)[C@@H](O)[C@@H]1O ?
> 100 µM

###

Each item that follows carries a reported GI50.
test system: UACC-257 melanoma; assay: NCI tumour cell line growth inhibition, 48 h

// known answers, use as guide
CCCC1=C(C(=O)OCC)C(c2ccccc2OC)C(C#N)=C(N)O1 (stereo not given)	65500 nM
COc1ccc2c(c1)/C(=C\c1c(Cl)n(C)c3ccccc13)C(=O)N2	1870 nM
CCC[CH2][Sn]1([CH2]CCC)[O]CC(CN2CCOCC2)[O]1 (stereo not given)	4290 nM
COc1cc(C2CC(c3ccccc3)=NN2C(C)=O)cc(OC)c1OC (stereo not given)	> 100000 nM
Cc1nn(-c2ccccc2)c2nc3c(nc12)C1=NCCN1C(c1ccc(Cl)cc1)N3 (stereo not given)	1790 nM
O=C1/C(=C/c2ccccc2F)CN(C(=O)C(Cl)Cl)C/C1=C\c1ccccc1F	1080 nM

Could you tell me which GI50 is on file for CCOC(=O)c1c(Cl)c2c(n1Cc1cccc(OC)c1)-c1oncc1CC2 ?
6410 nM

Could you tell me which GI50 is on file for O=C(O)c1cccc2cccc(C(=O)O)c12.[Hg] ?
16700 nM

Could you tell me which GI50 is on file for O=C1CCC(N2Cc3c(C#CCCCNC(=O)c4cc5c(o4)C(=O)c4ccccc4C5=O)cccc3C2=O)C(=O)N1 (stereo not given) ?
2000 nM

Could you tell me which GI50 is on file for CCN(CC)CCCCNc1ncc2cc(-c3cc(OC)cc(OC)c3)c(NC(=O)NC(C)(C)C)nc2n1 ?
1780 nM
